Tested on: B16 mouse melanoma cells
Assay Explanation: cell viability in the B16 cell-based assay (Viability, B16 IC50)
Condition Parameters: read-out: Viability, B16 IC50; B16 cells; concentration causing 50% cell death; values greater than 10 represent a lack of cell death
For each record, write down the corresponding IC50.

IN: Look up IC50: O=C(OC1CN2CCC1CC2)N1CCN(c2ccccc2)CC1 (centres unmarked)
OUT: ≥ 10 µM

IN: # IC50 lookup, item COCCOc1ccc(C#CC(C)(C)NC(=O)OC2CN3CCC2CC3)cc1 (centres unmarked)
OUT: ≥ 10 µM

IN: Dear colleague, I am looking for the recorded IC50 of the following molecule: O=C(OC1CN2CCC1CC2)N1CCN(c2cccc(-c3ccccc3)c2)CC1 (centres unmarked)
OUT: 8.36 µM

IN: Which IC50 is reported for this molecule? COCCCOc1ccc(C#CC(C)(C)NC(=O)OC2CN3CCC2CC3)cc1 (centres unmarked)
OUT: ≥ 10 µM

IN: Find the recorded IC50 belonging to CN(C)C(=O)c1ccc(Oc2ccc(C(C)(C)NC(=O)OC3CN4CCC3CC4)cc2)cc1 (centres unmarked) and report it.
OUT: ≥ 10 µM

IN: May I ask what IC50 has been recorded for CC(C)(NC(=O)OC1CN2CCC1CC2)c1ccc(-c2ccc(CO)cc2)cc1 (centres unmarked) ?
OUT: ≥ 10 µM

IN: Which IC50 is reported for this molecule? CC(C)(NC(=O)OC1CN2CCC1CC2)c1ccc(-c2ccc(CCO)cc2)cc1 (centres unmarked)
OUT: ≥ 10 µM

IN: Returns the measured IC50 for the input molecule. Input: O=C(OC1CN2CCC1CC2)N1CCN(c2ccc(-c3ccccc3)cc2)CC1 (centres unmarked)
OUT: 5.21 µM

====

System: C32 human melanoma cells
Assay Explanation: cell viability in the C32 cell-based assay (Viability, C32 IC50)
Condition Parameters: read-out: Viability, C32 IC50; C32 cells; concentration causing 50% cell death; values greater than 10 represent a lack of cell death
pIC50: −log10 of the molar value.
Property Name: pIC50

IN: # query: pIC50 of entry CC(C)(NC(=O)OC1CN2CCC1CC2)c1ccc(-c2ccc(CO)cc2)cc1 (centres unmarked)
OUT: ≤ 5.00

IN: For O=C(OC1CN2CCC1CC2)N1CCN(c2ccc(-c3ccccc3)cc2)CC1 (centres unmarked) , what is its reported pIC50?
OUT: 5.39

IN: Quick one: pIC50 for O=C(OC1CN2CCC1CC2)N1CCN(c2cccc(-c3ccccc3)c2)CC1 (centres unmarked) ?
OUT: ≤ 5.00

IN: Would you mind telling me what pIC50 value was observed for COCCOc1ccc(C#CC(C)(C)NC(=O)OC2CN3CCC2CC3)cc1 (centres unmarked) ?
OUT: ≤ 5.00

IN: Which pIC50 value belongs to CC(C)(NC(=O)OC1CN2CCC1CC2)c1ccc(-c2ccc(CCO)cc2)cc1 (centres unmarked) ?
OUT: ≤ 5.00

====

System: GM3 expression on the cell surface, B16 mouse melanoma cells
Assay Explanation: cell based phenotypic assay, cell surface GM3 by antibody mediated immunofluorescence, B16 (GM3 B16 IC50)
Condition Parameters: Mus musculus, B16 mouse melanoma cells; 50% inhibition of GM3 expression on the cell surface; read-out: GM3 B16 IC50
Provide the recorded IC50 for the entries that follow.
Your answer should be a plain number; it is taken to be in nM.

IN: Query (compound): COCCOCc1ccc(-c2ccc(C3(NC(=O)NC4(C)CCN5CCC4CC5)CC3)cc2)cc1 (centres unmarked) ; field requested: IC50
OUT: 31.3

IN: Suppose we examine the compound CCC1(NC(=O)NC2(c3ccc(-c4ccc(CCCOC)cc4)cc3)CC2)CN2CCC1CC2 (centres unmarked) ; what IC50 value has been reported?
OUT: 16.2

IN: Item under review: COCc1ccc(-c2nc(N3CCC(C(=O)NC4(C)CCN5CCC4CC5)CC3)ncc2F)cc1 (centres unmarked) . Reported IC50?
OUT: 15.5

IN: State the recorded IC50 for this entry: COCCOCc1ccc(-c2ccc(C(C)(C)NC(=O)N3CCN4CCC3CC4)cc2)cc1
OUT: 933

IN: Which measured IC50 value corresponds to CC1(NC(=O)C2CCN(c3nccc(Oc4ccc(F)cc4)n3)CC2)CCN2CCC1CC2 (centres unmarked) ?
OUT: 8.94

IN: Query (compound): CC1(NC(=O)C2CN(c3cccc(-c4ccc(F)cc4)c3)C2)CCN2CCC1CC2 (centres unmarked) ; field requested: IC50
OUT: 272

IN: Consider the compound shown here: CNC(=O)c1ccc(-c2ccc(C(C)(C)NC(=O)N3CCN4CCC3CC4)cc2)cc1 What is its recorded IC50?
OUT: 4440

IN: What does the record list as IC50 for CC1(NC(=O)C2CN(c3ncc(F)c(-c4ccc(F)cc4)n3)C2)CCN2CCC1CC2 (centres unmarked) ?
OUT: 122

IN: Which IC50 reading was recorded for the compound CC1CN(C(=O)NC2(C)CCN3CCC2CC3)CCN1c1cccc(-c2ccccc2)c1 (centres unmarked) ?
OUT: 70.7

IN: # query: IC50 of entry COCc1ccc(-c2ccnc(N3CCN(C(=O)NC4(C)CCN5CCC4CC5)CC3C(F)F)n2)cc1 (centres unmarked)
OUT: 195

IN: Look up IC50 for this compound: COCCCOc1cnc(-c2ccc(C(C)(C)NC(=O)OC3CCN4CCC3CC4)cc2)cn1 (centres unmarked)
OUT: 108

IN: Field request: IC50 | item: CC1(NC(=O)C2CCN(c3cccc(-c4ccc(F)cc4)c3)CC2)CN2CCC1CC2 (centres unmarked)
OUT: 237

IN: Which IC50 is listed for O=C(NC1CCN2CCC1CC2)N1CCN(c2cccc(-c3ccccc3)c2)CC1 (centres unmarked) ?
OUT: 3390

IN: Would you kindly share the measured IC50 for CC1(NC(=O)C2(F)CCN(c3nccc(Oc4ccc(C#N)cc4)n3)CC2)CN2CCC1CC2 (centres unmarked) ?
OUT: 54.4

IN: Using the record for COC1(C(=O)NC2(C)CCN3CCC2CC3)CCN(c2nccc(-c3ccc(OCCF)cc3)n2)CC1 (centres unmarked) , report its IC50.
OUT: 73.8

IN: Endpoint output: IC50 of COCCOc1ccc(-c2cccc(C(C)(C)NC(=O)OC3CCN4CCC3CC4)c2)nc1 (centres unmarked) . Value?
OUT: 103

IN: Consider the compound shown here: CC1(NC(=O)N2CCN(c3ccc(-c4ccccc4)cc3)CC2)CCN2CCC1CC2 (centres unmarked) What is its recorded IC50?
OUT: 1380

====

Would you mind telling me the reported pIC50 of each entry?
Target Under Test: glucosylceramide synthase (Homo sapiens)
Construct: Microsomes were isolated from A375 human melanoma cells; endogenous in cells
Sequence (Q16739 whole entry): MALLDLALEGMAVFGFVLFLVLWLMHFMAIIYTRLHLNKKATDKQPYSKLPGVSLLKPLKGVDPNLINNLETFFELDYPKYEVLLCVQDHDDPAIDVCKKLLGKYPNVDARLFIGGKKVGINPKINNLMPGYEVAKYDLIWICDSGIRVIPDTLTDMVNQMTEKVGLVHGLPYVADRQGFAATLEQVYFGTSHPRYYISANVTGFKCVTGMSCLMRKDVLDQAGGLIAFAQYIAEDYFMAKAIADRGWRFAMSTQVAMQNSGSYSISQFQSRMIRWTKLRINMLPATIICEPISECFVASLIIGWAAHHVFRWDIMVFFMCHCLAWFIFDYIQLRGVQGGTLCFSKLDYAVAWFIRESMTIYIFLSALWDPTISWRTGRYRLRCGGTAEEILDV
Assay Explanation: microsomal assay measuring conversion of ceramide to glucosylceramide by HPLC (GCS IC50)
Condition Parameters: concentration causing 50% inhibition of glucosylceramide synthase activity
Schema: pIC50 number; meaning minus log10 of the concentration expressed in molar units.

IN: If you can, please state the reported pIC50 value of COCCOc1ccc(-c2cccc(C(C)(C)NC(=O)OC3CCN4CCC3CC4)c2)cc1 (stereo not shown) .
OUT: 7.49

IN: If you can, please state the reported pIC50 value of CCC1(NC(=O)NC2(c3ccc(-c4ccc(COCc5cncnc5)cc4)cc3)CC2)CN2CCC1CC2 (stereo not shown) .
OUT: 7.29

IN: // query pIC50 value for entry CC(C)(C)CCS(=O)(=O)c1ccc(-c2ccc(C(C)(C)NC(=O)NC3(C)CCN4CCC3CC4)cc2)cc1 (stereo not shown)
OUT: 9.09

IN: Find the recorded pIC50 belonging to COCc1ccc(-c2ccnc(N3CCC(C(=O)NC4(C)CCN5CCC4CC5)CC3)n2)cc1 (stereo not shown) and report it.
OUT: 8.40

====

Test system: GM3 expression on the cell surface, B16 mouse melanoma cells
Assay Explanation: cell based phenotypic assay, cell surface GM3 by antibody mediated immunofluorescence, B16 (GM3 B16 IC50)
Condition Parameters: Mus musculus, B16 mouse melanoma cells; 50% inhibition of GM3 expression on the cell surface; read-out: GM3 B16 IC50
Property Name: log10 IC50 (log10 of the value in µM)
Response schema: value (number) is log10 of IC50 in units of µM.

IN: Sample CC(C)(NC(=O)NC1(C)CN2CCC1CC2)c1cccc(Oc2cccc(C(=O)N3CCOCC3)c2)c1 (centres unmarked) — what was its log10 IC50?
OUT: 0.31

IN: Give the measured log10 IC50 of CC1(NC(=O)C2(F)CCN(c3nccc(Oc4ccc(F)cc4)n3)CC2)CCN2CCC1CC2 (centres unmarked) .
OUT: -1.80

IN: Please report the recorded log10 IC50 for COCCOc1ccc(-c2ccc(C(C)(C)NC(=O)OC3CCN4CCC3CC4)nc2)cc1 (centres unmarked) .
OUT: -0.82

IN: Look up log10 IC50 for this compound: COCCCOc1ccc(-c2ccc(C3(NC(=O)NC4(C)CCN5CCC4CC5)CC3)cc2)cc1 (centres unmarked)
OUT: -2.76

IN: Could you share which log10 IC50 value was measured for CCC1(NC(=O)NC(C)(C)c2ccc(-c3ccc(S(=O)(=O)CCCOC)cc3)cc2)CN2CCC1CC2 (centres unmarked) ?
OUT: -1.24

IN: What value of log10 IC50 has been recorded for this entry: CN(C)C(=O)c1ccc(-c2ccc(C(C)(C)NC(=O)OC3CCN4CCC3CC4)cc2)cc1 (centres unmarked)
OUT: -0.75

IN: What does the record list as log10 IC50 for CC(C)(NC(=O)NC1(C)CCN2CCC1CC2)c1ccc(-c2ccc(OCCn3cccn3)cc2)cc1 (centres unmarked) ?
OUT: -2.29

# credit: patent US12060349B2
